Test: chemical genetic growth profiling, strain panel (AID 1159580);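 note: tested at 20 µM; growth read once vehicle control cultures reached saturation at 30 °C; 1 = growth at the plate median or of vehicle wells; lower values mean less growth of the strain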
Conditions: S. cerevisiae deletion strains, growth OD, locus YEL061C, strain CIN8 (second series), active compounds read low
Screen size: about 5,500 compounds; about 2,000 (36%) were called active. Roughly 18% stayed inconclusive and do not appear here. This is one part of the list.
assayEndpoint: normalized growth

CC(=O)O[C@H]1C[C@@H](O)C(C)(C)C2C[C@@H](OC(C)=O)[C@]3(C)C(CC[C@@]4(C)[C@H](c5ccoc5)OC(=O)C5OC543)[C@]21C (stereo partly drawn)
1.01 (inactive)

For CC(=O)O[C@H]1C[C@@]2(C)[C@H](c3ccoc3)OC(=O)[C@H]3O[C@]32[C@@]2(C)C1[C@]1(C)C(C[C@H]2OC(C)=O)C(C)(C)[C@H](OC(C)=O)C[C@@H]1OC(C)=O (stereo partly drawn) , what is its reported normalized growth?
0.978 (inactive)

I have this molecule here, CC(=O)O[C@@H]1CC2C(C)(C)CCC(=O)[C@]2(C)C2CC[C@@]3(C)[C@H](c4ccoc4)OC(=O)C4OC43[C@@]21C (stereo partly drawn) , and I need its recorded normalized growth.
0.987 (inactive)

* * *

Experiment: chemical genetic growth profiling, strain panel (AID 1159580)
Conditions: S. cerevisiae deletion strains, growth OD, locus YDR069C, strain doa4
The campaign covered roughly 5,500 compounds. About 2,000 (36%) were called active. Roughly 18% stayed inconclusive and do not appear here. Cut-off read from the data, not from the text of the source: active = normalized growth mostly below about 0.91 (no sharp cut-off); inconclusive = no clear call, values can overlap the other calls; inactive = mostly above about 0.92. The list shows a part of the results.
Return exactly one item of active, inactive

Would you please look over these solved cases?
Nc1ccc(C(=O)Oc2ccccc2)c(O)c1
inactive
C[n+]1cc2c3c(ccc2c2ccc4cc5c(cc4c21)OCO5)OCO3
inactive
CC(=O)O[C@@H]1CC2C(C)(C)CCC(=O)[C@]2(C)C2CC[C@@]3(C)[C@H](c4ccoc4)OC(=O)C4OC43[C@@]21C (some centres undefined)
inactive
Nc1nnc(-c2cccc(Cl)c2Cl)c(N)n1
inactive
COc1ccc(-c2cc(=O)c3ccccc3o2)cc1
inactive

Record request — test call for N[C@@H]1CONC1=O
inactive

Would you mind telling me which call this test gave O=c1cc(-c2ccc(O)c(O)c2)oc2ccccc12 ?
active

Returns: the outcome recorded for COc1cc2c(cc1OC)-c1cc3ccc(OC)c(OC)c3c[n+]1CC2 in this assay.
inactive

* * *

Experiment: chemical genetic growth profiling, strain panel (AID 1159580)
Details: S. cerevisiae deletion strains, growth OD, locus YJL092W, strain hpr5, active compounds read low
Screen size: about 5,500 compounds; about 2,000 (36%) were called active. Roughly 18% stayed inconclusive and do not appear here. This is one part of the list.
assayEndpoint: normalized growth
// response body must contain only the number

Solved cases (5 shown):
CC1=CCc2c(cc3oc(C)cc(=O)c3c2O)OC1
0.956
Cn1c(=O)c2[nH]c(C3CCCC3)nc2n(C)c1=O
1.01
C[N+]1(CCCCC[N+]2(C)CCCC2)CCCC1
0.997
O=C(O)c1nc2cc(Cl)c(Cl)cc2[nH]c1=O
1.02
COc1cc2cc[n+]3cc4c(OC)c(OC)ccc4cc3c2cc1OC
0.978

Attention now turns to another entry.
Could you tell me which normalized growth is on file for COc1cc2c(cc1OC)-c1cc3ccc(OC)c(OC)c3c[n+]1CC2 ?
0.979

* * *

Assay: chemical genetic growth profiling, strain panel (AID 1159580)
Settings: S. cerevisiae deletion strains, growth OD, locus YBR231C, strain swc5, active compounds read low
Among all 5,500 compounds or so, about 2,000 (36%) were called active. Roughly 18% stayed inconclusive and do not appear here. Some of the results follow.
Labelling: normalized growth reported below 1 becomes YES; at or above becomes NO.

Use the examples below as a reference point.
COc1ccc(-c2cc(=O)c3c(OC(C)=O)cc(OC(C)=O)cc3o2)cc1
YES
COc1c(O)cccc1O
NO
CC(=O)[C@H]1CCC2C3CC=C4C[C@@H](O)CC[C@]4(C)C3CC[C@@]21C (some centres not stated)
YES
O=C(/C=C/c1ccccc1)c1ccc(O)cc1
YES
CC(=O)Oc1ccc(-c2cc(=O)c3c(OC(C)=O)cc(OC(C)=O)cc3o2)cc1
YES
CC(=O)OCC(=O)[C@H]1CCC2C3CC=C4C[C@@H](O)CC[C@]4(C)C3CC[C@@]21C (some centres not stated)
YES
O=c1c2ccccc2oc2ccccc12
YES
CC(C)c1ccc2c(c1O)CC[C@H]1C3=C(CC[C@]21C)C(=O)OC3
YES

Confirm or reject: normalized growth of CC(C(=O)O)[C@H]1CCC2C3CC=C4C[C@@H](O)CC[C@]4(C)C3CC[C@@]21C (some centres not stated) lies strictly below 1
NO

Bench note: check whether CC(C)Oc1ccc2c(=O)cc(-c3ccccc3)oc2c1 shows normalized growth below 1
YES

Check if normalized growth falls below 1 for O=c1c(-c2cc(O)c(O)c(O)c2)coc2cc(O)c(O)c(O)c12 .
YES

* * *

Assay: chemical genetic growth profiling, strain panel (AID 1159580);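 note: tested at 20 µM; growth read once vehicle control cultures reached saturation at 30 °C; 1 = growth at the plate median or of vehicle wells; lower values mean less growth of the strain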
Settings: S. cerevisiae deletion strains, growth OD, locus YHR200W, strain rpn10, active compounds read low
Screen size: about 5,500 compounds; about 2,000 (36%) were called active. About 18% were inconclusive and are not listed. This is one part of the list.
Binarize normalized growth at 0.9; below is true, at or above is false.

Known results for compounds:
O=c1c(-c2ccccc2)coc2cc(O)cc(O)c12
true
NCCc1ccc(O)cc1
false
CCCCC1C(=O)N(c2ccccc2)N(c2ccccc2)C1=O
false
CC(N)Cc1ccc(O)cc1 (stereo not drawn)
false
CCn1cc(C(=O)O)c(=O)c2cc(F)c(N3CCNCC3)cc21
false
NCCc1cccc(O)c1
false

Decide: normalized growth of CCCCCCCCCc1ccc(O)cc1 strictly below 0.9?
true

* * *

Experiment: chemical genetic growth profiling, strain panel (AID 1159580);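 note: tested at 20 µM; growth read once vehicle control cultures reached saturation at 30 °C; 1 = growth at the plate median or of vehicle wells; lower values mean less growth of the strain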
Settings: S. cerevisiae deletion strains, growth OD, locus YMR078C, strain ctf18
In all, about 5,500 compounds went through this assay and about 2,000 (36%) were called active. Inconclusive results (about 18%) are left out. Rule as the data show it: active = normalized growth mostly below about 0.91 (no sharp cut-off); inconclusive = no clear call, values can overlap the other calls; inactive = mostly above about 0.92. The list shows a part of the results.
Pick from Y = active, N = inactive when you respond.

Recorded test outcome, item CC(=O)OC1CC2C(C)(C)CCCC2(C)C2CCC3(C)C(c4ccoc4)OC(=O)C4OC43C12C (stereo not drawn)
N

What was the test verdict on COc1c(O)cc2c(-c3ccccc3)cc(=O)oc2c1OC ?
N

Short answer needed: outcome of this test for CC1=CCc2c(cc3oc(C)cc(=O)c3c2O)OC1 ?
N

Short answer needed: outcome of this test for COc1cc([C@@H]2c3cc4c(cc3[C@H](OC(C)=O)[C@H]3COC(=O)[C@H]23)OCO4)cc(OC)c1OC ?
N

Hi team, can someone confirm the assay call for O=C1CCc2cc(OCCCCc3nnnn3C3CCCCC3)ccc2N1 ?
N

Called result for COc1cc2cc[n+]3cc4c(OC)c(OC)ccc4cc3c2cc1OC
N

* * *

Test: chemical genetic growth profiling, strain panel (AID 1159580);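 note: tested at 20 µM; growth read once vehicle control cultures reached saturation at 30 °C; 1 = growth at the plate median or of vehicle wells; lower values mean less growth of the strain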
Conditions: S. cerevisiae deletion strains, growth OD, locus YLL041C, strain sdh2
Screen size: about 5,500 compounds; about 2,000 (36%) were called active. Roughly 18% stayed inconclusive and do not appear here. Rule as the data show it: active = normalized growth mostly below about 0.91 (no sharp cut-off); inconclusive = no clear call, values can overlap the other calls; inactive = mostly above about 0.92. Some of the results follow.
Respond only with the outcome that fits, drawn from active, inactive

Consider the worked cases shown below.
ClC(Cl)=C(c1ccc(Cl)cc1)c1ccc(Cl)cc1
inactive
CC(=O)OCC(=O)[C@@]1(O)CCC2C3CC[C@@H]4C[C@H](O)CC[C@]4(C)C3C(=O)C[C@@]21C (stereo partly drawn)
inactive
CC(=O)Nc1ccc(O)cc1
inactive
CCC(CCC(C)[C@H]1CCC2C3CC=C4C[C@@H](O)CC[C@]4(C)C3CC[C@@]21C)C(C)C (stereo partly drawn)
inactive
CC(C)c1ccc2c(c1O)CC[C@H]1C3=C(CC[C@]21C)C(=O)OC3
inactive
COc1ccc(-c2cc(=O)c3c(O)c(OC)c(OC)c(OC)c3o2)cc1
inactive

Which outcome was assigned to CN1CCOC(c2ccccc2)c2ccccc2C1 (stereo not drawn) in this test?
inactive

Fill in: this test's call for CC(=O)CC(c1ccccc1)c1c(O)c2ccccc2oc1=O (stereo not drawn) is ___
inactive

Which outcome was assigned to COc1ccc(-c2cc(=O)c3cc(OC)ccc3o2)cc1 in this test?
inactive

Hey, what did the test say about O=C1c2c(O)ccc(O)c2C(=O)c2c(NCCNCCO)ccc(NCCNCCO)c21 ?
inactive

Short answer needed: outcome of this test for CC1(C)O[C@@H]2CC3C4C[C@H](F)C5=CC(=O)C=CC5(C)C4C(O)CC3(C)[C@]2(C(=O)CO)O1 (stereo partly drawn) ?
inactive

GET /call?item= COc1cc2c(cc1OC)-c1cc3ccc(OC)c(OC)c3c[n+]1CC2 returns the recorded outcome of this test.
inactive

So what was the verdict on CC(=O)O[C@@H]1CC2C(C)(C)C(=O)CC[C@]2(C)C2CC[C@@]3(C)[C@H](c4ccoc4)OC(=O)C4OC43[C@@]21C (stereo partly drawn) in this test?
inactive
